# target-or-test-system: UniProt:P51658
# Sequence (whole entry): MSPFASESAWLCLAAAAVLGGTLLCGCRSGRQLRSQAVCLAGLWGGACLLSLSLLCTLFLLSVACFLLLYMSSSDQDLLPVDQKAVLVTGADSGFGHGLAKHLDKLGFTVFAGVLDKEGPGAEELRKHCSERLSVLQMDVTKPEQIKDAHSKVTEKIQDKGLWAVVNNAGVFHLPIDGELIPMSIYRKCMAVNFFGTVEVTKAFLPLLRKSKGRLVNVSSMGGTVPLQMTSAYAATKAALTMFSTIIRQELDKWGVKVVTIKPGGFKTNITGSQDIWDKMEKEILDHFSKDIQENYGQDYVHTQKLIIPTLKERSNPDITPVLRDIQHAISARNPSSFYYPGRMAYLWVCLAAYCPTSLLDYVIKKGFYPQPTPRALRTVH
# condition-notes: at 50 nM
# Description: Inhibition of mouse microsomal fraction 17beta-HSD2 at 50 nM using [3H]-E2 as substrate after 20 mins in presence of NAD+ by radio-flow detector based analysis relative to control
Please go through the items and note down their inhibition.
Report the figure along with its unit, number first.

# annotated cases, reported inhibition shown
(Q) Would you kindly share the measured inhibition for `O=C(c1ccc(-c2cccnc2)s1)c1cc(F)c(F)c(O)c1F` ?
(A) 0%

(Q) Now consider `O=C(c1ccc(-c2ccccc2)s1)c1cc(F)c(F)c(O)c1F` and answer again.
(A) 27%

(Q) Next up: `O=C(c1ccc(-c2cccc(NS(=O)(=O)c3ccccc3OC(F)(F)F)c2)s1)c1cc(F)c(F)c(O)c1F`
(A) 81%

(Q) Now give it for `Nc1ccccc1-c1ccc(C(=O)c2cc(F)c(F)c(O)c2F)s1` too.
(A) 19%

(Q) Also need `Cc1cc(-c2ccc(C(=O)c3cc(F)c(F)c(O)c3F)s2)cc(C)c1O` , thanks.
(A) 49.3%

(Q) Follow-up item: `Nc1cc(-c2ccc(C(=O)c3cc(F)c(F)c(O)c3F)s2)c(F)cc1F`
(A) 35%

(Q) Okay, and `COc1ccc(-c2ccc(C(=O)c3cc(F)c(F)c(O)c3F)s2)cc1N` ?
(A) 20%

(Q) Now give it for `Cc1ccc(-c2ccc(C(=O)c3cc(F)c(F)c(O)c3F)s2)cc1N` too.
(A) 48%

Respectfully, I request inhibition for each entry included below.
1. COc1c(Cl)cc(-c2ccc(C(=O)c3cc(F)c(F)c(O)c3F)s2)cc1Cl
2. O=C(c1ccc(-c2cc(Cl)c(O)c(Cl)c2)s1)c1cc(F)c(F)c(O)c1F

(A)
1. 37.6%
2. 12%
